test system: HeLa Kyoto; assay: solubility in G1/S (NP-40 vs SDS abundance) (log2 ratio); higher = more soluble; conditions: cell cycle stage: G1/S
PARAMETER: solubility in G1/S (log2)
Field format: numeric only.

Observe how each entry below is paired with its result.
{"SEQ_TEXT": "MVTEQEVDAIGQTLVDPKQPLQARFRALFTLRGLGGPGAIAWISQAFDDDSALLKHELAYCLGQMQDARAIPMLVDVLQDTRQEPMVRHEAGEALGAIGDPEVLEILKQYSSDPVIEVAETCQLAVRRLEWLQQHGGEPAAGPYLSVDPAPPAEERDVGRLREALLDESRPLFERYRAMFALRNAGGEEAALALAEGLHCGSALFRHEVGYVLGQLQHEAAVPQLAAALARCTENPMVRHECAEALGAIARPACLAALQAHADDPERVVRESCEVALDMYEHETGRAFQYADGLEQLRGAPS [DOHH]", "solubility in G1/S (log2)": 0.137}
{"SEQ_TEXT": "MSIMSYNGGAVMAMKGKNCVAIAADRRFGIQAQMVTTDFQKIFPMGDRLYIGLAGLATDVQTVAQRLKFRLNLYELKEGRQIKPYTLMSMVANLLYEKRFGPYYTEPVIAGLDPKTFKPFICSLDLIGCPMVTDDFVVSGTCAEQMYGMCESLWEPNMDPDHLFETISQAMLNAVDRDAVSGMGVIVHIIEKDKITTRTLKARMD [PSMB3]", "solubility in G1/S (log2)": 0.275}

Quick note, solubility in G1/S (log2) for MSDLRITEAFLYMDYLCFRALCCKGPPPARPEYDLVCIGLTGSGKTSLLSKLCSESPDNVVSTTGFSIKAVPFQNAILNVKELGGADNIRKYWSRYYQGSQGVIFVLDSASSEDDLEAARNELHSALQHPQLCTLPFLILANHQDKPAARSVQEIKKYFELEPLARGKRWILQPCSLDDMDALKDSFSQLINLLEEKDHEAVRM [ARL15] landed at 0.118

----------
Collected melting temperature values appear next to each entry.
tested on: HeLa Kyoto; experiment: melting temperature (median over replicates), in situ; higher = more thermally stable; conditions: cell cycle stage: G1/S

{"SEQ_TEXT": "MDNLSSEEIQQRAHQITDESLESTRRILGLAIESQDAGIKTITMLDEQKEQLNRIEEGLDQINKDMRETEKTLTELNKCCGLCVCPCNRTKNFESGKAYKTTWGDGGENSPCNVVSKQPGPVTNGQLQQPTTGAASGGYIKRITNDAREDEMEENLTQVGSILGNLKDMALNIGNEIDAQNPQIKRITDKADTNRDRIDIANARAKKLIDS [SNAP23]", "melting temperature": "54.8 °C"}

# melting temperature of MERFVVTAPPARNRSKTALYVTPLDRVTEFGGELHEDGGKLFCTSCNVVLNHVRKSAISDHLKSKTHTKRKAEFEEQNVRKKQRPLTASLQCNSTAQTEKVSVIQDFVKMCLEANIPLEKADHPAVRAFLSRHVKNGGSIPKSDQLRRAYLPDGYENENQLLNSQDC [CGGBP1] = 51.7 °C

----------
tested on: HeLa Kyoto; experiment: solubility in G1/S (NP-40 vs SDS abundance) (log2 ratio); higher = more soluble; conditions: cell cycle stage: G1/S
PARAMETER: solubility in G1/S (log2)
// return a plain number; no unit text

{"SEQ_TEXT": "MSLEDPFFVVRGEVQKAVNTARGLYQRWCELLQESAAVGREELDWTTNELRNGLRSIEWDLEDLEETIGIVEANPGKFKLPAGDLQERKVFVERMREAVQEMKDHMVSPTAVAFLERNNREILAGKPAAQKSPSDLLDASAVSATSRYIEEQQATQQLIMDEQDQQLEMVSGSIQVLKHMSGRVGEELDEQGIMLDAFAQEMDHTQSRMDGVLRKLAKVSHMTSDRRQWCAIAVLVGVLLLVLILLFSL [STX10]", "solubility in G1/S (log2)": -0.293}

Here is the next item to consider.
Notebook: MALLVRVLRNQTSISQWVPVCSRLIPVSPTQGQGDRALSRTSQWPQMSQSRACGGSEQIPGIDIQLNRKYHTTRKLSTTKDSPQPVEEKVGAFTKIIEAMGFTGPLKYSKWKIKIAALRMYTSCVEKTDFEEFFLRCQMPDTFNSWFLITLLHVWMCLVRMKQEGRSGKYMCRIIVHFMWEDVQQRGRVMGVNPYILKKNMILMTNHFYAAILGYDEGILSDDHGLAAALWRTFFNRKCEDPRHLELLVEYVRKQIQYLDSMNGEDLLLTGEVSWRPLVEKNPQSILKPHSPTYNDEGL [UQCC1] , solubility in G1/S (log2) read as -0.367
